Molecular target: T1, human amylin receptor (amylin 3(a) receptor: human calcitonin receptor with RAMP-3) (human, UniProt P30988 25-474; O60896 24-148, limits assumed)
T1 sequence (looked up) 1: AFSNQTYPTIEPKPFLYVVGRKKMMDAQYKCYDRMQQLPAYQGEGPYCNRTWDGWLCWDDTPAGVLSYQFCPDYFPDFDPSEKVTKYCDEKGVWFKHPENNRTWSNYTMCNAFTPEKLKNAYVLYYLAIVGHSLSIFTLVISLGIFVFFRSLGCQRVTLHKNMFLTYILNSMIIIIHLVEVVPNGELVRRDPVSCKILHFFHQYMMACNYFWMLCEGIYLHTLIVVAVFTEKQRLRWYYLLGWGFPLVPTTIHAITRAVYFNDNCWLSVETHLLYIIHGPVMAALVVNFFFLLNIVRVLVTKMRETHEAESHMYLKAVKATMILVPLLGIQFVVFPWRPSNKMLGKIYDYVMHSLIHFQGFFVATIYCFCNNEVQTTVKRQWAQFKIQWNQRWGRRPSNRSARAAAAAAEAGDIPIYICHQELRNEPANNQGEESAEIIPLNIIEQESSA
T1 sequence (looked up) 2: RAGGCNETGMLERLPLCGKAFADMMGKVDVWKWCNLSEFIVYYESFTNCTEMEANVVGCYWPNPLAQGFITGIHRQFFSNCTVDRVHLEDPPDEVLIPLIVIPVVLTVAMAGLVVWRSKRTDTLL
Assay: cell-based or functional assay
Numbered stars: 1 amine (or outer) side, 2 acyl side, 3 side chain; on linkers, the order of the positions; unused ones are H or OH. Bridge positions count the residues as written; N and C are the ends. Side chains are listed from the residue outwards. Ends that are not written are not given here. * marks the point of attachment. C20 diacid = O=C(O)CCCCCCCCCCCCCCCCCCC(=O)*; γGlu = O=C(O)[C@H](CCC(=O)[*:2])N[*:1]
quantityMeasured: Ratio hCT/hAmylin funct.

# count of solved cases: 2
* K([γGlu-γGlu-C20 diacid])CNTATCATQRLASFLRHSSPNFGAIPSSTNVGPETY-NH2 (disulfide 2-7 (inferred), also called compound 120) | 8.1
* K([γGlu-γGlu-C20 diacid])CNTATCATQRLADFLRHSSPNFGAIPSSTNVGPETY-NH2 (disulfide 2-7 (inferred)) | 5.3

1: K([γGlu-C20 diacid])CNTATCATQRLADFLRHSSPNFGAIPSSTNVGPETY-NH2 (disulfide 2-7 (inferred))
2: K([γGlu-γGlu-C20 diacid])CNTATCATQRLAEFLRHSSPNFGAIPSSTNVGPNTF-NH2 (disulfide 2-7 (inferred))
3: K([γGlu-γGlu-C20 diacid])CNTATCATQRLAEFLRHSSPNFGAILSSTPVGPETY-NH2 (disulfide 2-7 (inferred))
4: K([γGlu-γGlu-C20 diacid])CNTATCATQRLAEFLRHSSPNFGAIPSSTNVGPETP-NH2 (disulfide 2-7 (inferred))
Request: List these items ordered by Ratio hCT/hAmylin funct., big to small. Your reply should list the labels following the order given in the request.
Result: 2, 3, 1, 4
(2: 9.9, 3: 5.8, 1: 3.9, 4: 0.8)
